System: ATP;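 note: ATP exposure 15 min at 22 °C before imaging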
Test: switch fluorescence ratio, 500 uM ATP over buffer (Cy3 cluster intensity, sum of 5 cycles each) (fold (ratio)); higher = stronger signal-on switching upon ATP binding; sequences stand for … in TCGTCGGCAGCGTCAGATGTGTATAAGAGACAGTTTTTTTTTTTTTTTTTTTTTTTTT…TC
Details: aptamer strand: ATP DNA aptamer (quencher-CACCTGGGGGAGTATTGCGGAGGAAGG + anchor), 100 nM annealed; ATP concentration: 500 uM
Assign MET to entries whose switch fluorescence ratio meets or exceeds 1; assign NOT MET to the rest.

Example entries begin here.
[[record]]
item_sequence = "GCTATTAGTT"
target_or_test_system = "ATP"
group = "MET"

[[record]]
item_sequence = "CGCAGTCTGT"
target_or_test_system = "ATP"
group = "MET"


Okay, next one:
Given the entry TTCGTTAAAG , answer whether its switch fluorescence ratio meets or surpasses 1. NOT MET

* * *

This section presents sequences with their documented switch fluorescence ratio values.
Tested on: ATP;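 note: ATP exposure 15 min at 22 °C before imaging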
Assay: switch fluorescence ratio, 500 uM ATP over buffer (Cy3 cluster intensity, sum of 5 cycles each) (fold (ratio)); higher = stronger signal-on switching upon ATP binding; sequences stand for … in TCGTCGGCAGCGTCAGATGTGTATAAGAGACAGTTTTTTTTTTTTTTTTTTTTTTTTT…TC
Settings: aptamer strand: ATP DNA aptamer (quencher-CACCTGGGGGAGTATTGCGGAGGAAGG + anchor), 100 nM annealed; ATP concentration: 500 uM
# answer = number (no unit)

Need switch fluorescence ratio of TTTAAATGGT , thanks. 1

Query (sequence): ATTAGGTAAT ; field requested: switch fluorescence ratio 0.999

// query switch fluorescence ratio value for entry TTCTGTTGAT 0.987

Fill blank: measured switch fluorescence ratio of the sequence ATCCGGGTTC is ____. 1

* * *

Entries and their switch fluorescence ratio values follow.
System: ATP;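 note: ATP exposure 15 min at 22 °C before imaging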
Assay: switch fluorescence ratio, 500 uM ATP over buffer (Cy3 cluster intensity, sum of 5 cycles each) (fold (ratio)); higher = stronger signal-on switching upon ATP binding; sequences stand for … in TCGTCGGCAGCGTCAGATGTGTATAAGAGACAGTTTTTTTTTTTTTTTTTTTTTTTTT…TC
Conditions: aptamer strand: ATP DNA aptamer (quencher-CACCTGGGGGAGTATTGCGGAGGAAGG + anchor), 100 nM annealed; ATP concentration: 500 uM

Known results for sequences:
[[record]]
item_sequence = "CGTTAAATTT"
endpoint_value = 0.994

[[record]]
item_sequence = "TTTTCGTGGT"
endpoint_value = 0.984

[[record]]
item_sequence = "GTCTAACTTA"
endpoint_value = 1.01

[[record]]
item_sequence = "CGGGGTAAGT"
endpoint_value = 1.01

[[record]]
item_sequence = "GCTTCTTTGT"
endpoint_value = 0.998

[[record]]
item_sequence = "GGGGCGGCGT"
endpoint_value = 1.02

[[record]]
item_sequence = "GGTGCCGGTT"
endpoint_value = 0.997

[[record]]
item_sequence = "GTCATCTGGG"
endpoint_value = 0.982

[[record]]
item_sequence = "GTTGGATTGG"
endpoint_value = 0.996

[[record]]
item_sequence = "CATTGAGGGC"
endpoint_value = 0.987


Query the reported switch fluorescence ratio for ATP; item: AATTGTTAGT 0.994

* * *

System: ATP;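 note: ATP exposure 15 min at 22 °C before imaging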
Test: switch fluorescence ratio, 500 uM ATP over buffer (Cy3 cluster intensity, sum of 5 cycles each) (fold (ratio)); higher = stronger signal-on switching upon ATP binding; sequences stand for … in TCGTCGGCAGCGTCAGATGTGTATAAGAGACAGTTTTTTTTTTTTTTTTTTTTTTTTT…TC
Conditions: aptamer strand: ATP DNA aptamer (quencher-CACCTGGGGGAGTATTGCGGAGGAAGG + anchor), 100 nM annealed; ATP concentration: 500 uM
METRIC_NAME: switch fluorescence ratio

Here are 5 sequences together with their reported answers.
[[record]]
item_sequence = "TCGAGGACTA"
endpoint_value = 0.999

[[record]]
item_sequence = "AAGTTGGGTA"
endpoint_value = 0.978

[[record]]
item_sequence = "TACTTGTGTT"
endpoint_value = 1.02

[[record]]
item_sequence = "CTTTGGAGGT"
endpoint_value = 0.985

[[record]]
item_sequence = "CAGGCAGGTC"
endpoint_value = 0.997


// query switch fluorescence ratio value for entry TTTGGGTTTC 0.977

Name the recorded switch fluorescence ratio for TGGATCATAA . 0.973

# switch fluorescence ratio lookup, item GGGCCGGGTT 1.01

Which measured switch fluorescence ratio value corresponds to AGTGCGTTTC ? 0.996

Quick check: switch fluorescence ratio of AAGTTAATTC ? 1.01

Which measured switch fluorescence ratio value corresponds to CGTTTGAACT ? 1.02

Given CATAGATAGG , state its recorded switch fluorescence ratio. 0.992

# lookup: switch fluorescence ratio of GCGGGAAATT 1

Recorded switch fluorescence ratio for CGAAGATTTG , please? 1

Fill in: switch fluorescence ratio of GGCCAAGGTC is ___ 1

Look up switch fluorescence ratio: TTGGGTATGT 1.01

Look at this sequence and give its reported switch fluorescence ratio. TGATTTTGGA 0.974

* * *

Test system: ATP;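 note: ATP exposure 15 min at 22 °C before imaging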
Assay: switch fluorescence ratio, 500 uM ATP over buffer (Cy3 cluster intensity, sum of 5 cycles each) (fold (ratio)); higher = stronger signal-on switching upon ATP binding; sequences stand for … in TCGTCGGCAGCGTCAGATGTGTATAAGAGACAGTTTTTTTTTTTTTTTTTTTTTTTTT…TC
Details: aptamer strand: ATP DNA aptamer (quencher-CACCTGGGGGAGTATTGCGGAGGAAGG + anchor), 100 nM annealed; ATP concentration: 500 uM
METRIC_NAME: switch fluorescence ratio
Simply state the number, no unit and no words.

Any idea what switch fluorescence ratio was measured for TTGTGCCCGG ? 0.973

Param item = CTCTAACGG ; retrieve measured switch fluorescence ratio. 0.982

Look up switch fluorescence ratio: CACGGGGTTT 0.954

* * *

Tested on: ATP;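 note: ATP exposure 15 min at 22 °C before imaging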
Assay: switch fluorescence ratio, 500 uM ATP over buffer (Cy3 cluster intensity, sum of 5 cycles each) (fold (ratio)); higher = stronger signal-on switching upon ATP binding; sequences stand for … in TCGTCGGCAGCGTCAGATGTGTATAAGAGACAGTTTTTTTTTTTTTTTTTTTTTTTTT…TC
Settings: aptamer strand: ATP DNA aptamer (quencher-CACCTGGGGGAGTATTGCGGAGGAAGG + anchor), 100 nM annealed; ATP concentration: 500 uM
This section presents sequences with their documented switch fluorescence ratio values.
Note: the reply should be a number with no unit written.

The examples below pair each entry with its known result.
[[record]]
item_sequence = "AACGTTCGCG"
target_or_test_system = "ATP"
endpoint_value = 1.03

[[record]]
item_sequence = "CGTTTAATAT"
target_or_test_system = "ATP"
endpoint_value = 1

[[record]]
item_sequence = "TCGTGTTCTG"
target_or_test_system = "ATP"
endpoint_value = 1.01

[[record]]
item_sequence = "GGATTGGGGA"
target_or_test_system = "ATP"
endpoint_value = 1.02

[[record]]
item_sequence = "CATCAATCTC"
target_or_test_system = "ATP"
endpoint_value = 1.12


Quick check: switch fluorescence ratio of ACACGTTGGC ? 1.05

# get_value(readout='switch fluorescence ratio', item= TGGGAAGGAT ) 1.01

Suppose we examine the sequence CAGTTGGGGT ; what switch fluorescence ratio value has been reported? 0.997

* * *

Each entry below lists one item and its recorded switch fluorescence ratio value.
System: ATP;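 note: ATP exposure 15 min at 22 °C before imaging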
Assay: switch fluorescence ratio, 500 uM ATP over buffer (Cy3 cluster intensity, sum of 5 cycles each) (fold (ratio)); higher = stronger signal-on switching upon ATP binding; sequences stand for … in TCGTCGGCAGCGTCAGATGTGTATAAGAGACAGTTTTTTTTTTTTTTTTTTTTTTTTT…TC
Settings: aptamer strand: ATP DNA aptamer (quencher-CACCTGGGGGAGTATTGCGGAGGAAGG + anchor), 100 nM annealed; ATP concentration: 500 uM
Number, no unit, nothing else.

Would you mind telling me what switch fluorescence ratio value was observed for CGGATTGTGT ? 1.02

# get_value(readout='switch fluorescence ratio', item= TTGGTTCAGC ) 1.05

Which switch fluorescence ratio is listed for TTTTAAGGAT ? 1

Consider the sequence shown here: TTTGGATTTG What is its recorded switch fluorescence ratio? 1.03

Consider the sequence AGGGGCAAAC and give its measured switch fluorescence ratio. 1.45

Sample TTTGCAGCC — what was its switch fluorescence ratio? 1.05

Item TGAGCGGAGG has what recorded switch fluorescence ratio? 1.01

Look up switch fluorescence ratio: CAAGAGTGTG 0.98

Which switch fluorescence ratio reading was recorded for the sequence ATCTGCGCGC ? 0.992

# input sequence: CGTGAGGGTA ; wanted: its switch fluorescence ratio 1.02

Requested field: switch fluorescence ratio. Item: TTTCGAGTTA 1.03

Look up switch fluorescence ratio for this sequence: AAACTGGTAT 0.982

Need switch fluorescence ratio, item ACTAGGGACA 1.24

I have this sequence here, ATCGCCTTGC , and I need its recorded switch fluorescence ratio. 1.16

Would you kindly share the measured switch fluorescence ratio for TACAGCTTTT ? 1.01
